The values you see were collected from patent US7659277B2.

biological target: POSH (Homo sapiens); construct: GST-POSH lot NB81/p.118 3.6 mg/ml; fused on or other part: GST tag, used for detection with anti-GST XL665; assay: Selectivity (% A in 1 μM), ubiquitin ligase activity of POSH; type: biochemical; settings: % activity at 1 μM compound; control is related to 100% activity; HTS protocol; read-out: Selectivity (% A* in 1 μM) POSH
Recorded remaining activity at 1 µM split into classes class 0 = under 20%, class 1 = from 20% up to 50%, class 2 = 50% and over

* O=C(Cc1ccccc1)N1N=CCC1(O)c1ccc(F)cc1 (centres unmarked) | class 2
* O=c1oc2cc(O)ccc2cc1-c1csc(-c2ccc(Cl)cc2)n1 | class 1
* O=C1NC(=O)N(c2ccccc2)C(=O)/C1=C\c1ccc2c(c1)OCO2 | class 1
* O=C1C(=Cc2ccco2)C(=O)N(c2ccccc2)C(=S)N1c1ccccc1 | class 0
* COc1ccc(/C=C2\C(=O)NC(=S)N(c3ccccc3)C2=O)cc1 | class 1
* COc1ccc(C(=O)CC2=C(O)C(=O)c3ccccc3C2=O)cc1 | class 1
* CC(C)Oc1ccc(/C=C2/SC(=S)NC2=O)cc1 | class 2
* O=[N+]([O-])c1ccc2c(c1)Cc1cc(/N=C/c3ccc(Br)cc3)ccc1-2 | class 2
* Oc1c(Br)cc(Cl)cc1/C=N/c1ccccc1Br | class 1
* COC(=O)c1ccc(N2C(=O)c3cccc(N)c3C2=O)cc1 | class 2

Exercise: # bin label for `COc1ccccc1N1C(=O)NC(=O)/C(=C\C=C\c2ccccc2)C1=O`
Key: class 0

Exercise: # classify by remaining activity at 1 µM band: `Cc1cc(/N=C/c2c(O)ccc3ccccc23)no1`
Key: class 0

Exercise: Band of `COC(=O)C1=C(C(=O)OC)SC(=C2C(=S)C(C)(C)N(C(C)=O)c3cc(C)ccc32)S1` ?
Key: class 1

###

Biological target: POSH (Homo sapiens, UniProt Q7Z6J0)
Construct: GST-POSH lot NB81/p.118 3.6 mg/ml; fused on or other part: GST tag, used for detection with anti-GST XL665
Sequence (Q7Z6J0 1-269 limits assumed): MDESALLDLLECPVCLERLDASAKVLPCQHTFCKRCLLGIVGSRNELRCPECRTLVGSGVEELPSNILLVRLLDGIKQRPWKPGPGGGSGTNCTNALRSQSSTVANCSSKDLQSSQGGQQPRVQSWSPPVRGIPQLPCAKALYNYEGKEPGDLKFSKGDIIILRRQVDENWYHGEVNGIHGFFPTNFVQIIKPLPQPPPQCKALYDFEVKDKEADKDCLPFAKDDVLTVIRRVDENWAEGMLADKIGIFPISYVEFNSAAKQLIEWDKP
Test: Selectivity (% A in 1 μM), ubiquitin ligase activity of POSH
Type: biochemical
Conditions: % activity at 1 μM compound; control is related to 100% activity; HTS protocol; read-out: Selectivity (% A* in 1 μM) POSH
Labelling field: enter Satisfied if recorded remaining activity at 1 µM is less than 40%. Enter Not satisfied if it equals or exceeds that cut-off.

Answered cases to consult:
• Oc1ccc(/N=C/c2cccs2)cc1-c1nc2ccccc2s1 = Satisfied
• O=C(C(Cl)Cl)N1CCN(c2ccc([N+](=O)[O-])cc2)CC1 = Not satisfied
• COc1cc(C2Nc3ccccc3NC3=C2C(=O)CC(C)(C)C3)cc(Br)c1O (stereo not drawn) = Not satisfied
• Oc1c(Br)cc(Cl)cc1/C=N/c1ccccn1 = Not satisfied

Exercise: Lab note: remaining activity at 1 µM threshold 40%. Does this molecule come in strictly under it? `O=C1NC(=O)/C(=C\c2ccc(-c3ccc(F)cc3)o2)S1`
Key: Not satisfied

Exercise: Given `O=c1nc(C(F)(F)F)cc(/C=C/c2ccc(-c3ccc(Br)cc3)o2)[nH]1` , is recorded remaining activity at 1 µM strictly lower than 40%?
Key: Satisfied

Exercise: # strict comparison: is reported remaining activity at 1 µM < 40%? input = `COc1ccc(N2C(=O)NC(=O)/C(=C\c3ccc(Cl)cc3)C2=O)cc1`
Key: Not satisfied

Exercise: Consider `O=c1/c(=C/c2cccc([N+](=O)[O-])c2O)sc2nc3ccccc3n12` . Does its remaining activity at 1 µM lie strictly below 40%?
Key: Not satisfied

###

Assign remaining activity at 1 µM to each entry below.
molecular target: POSH (Homo sapiens, UniProt Q7Z6J0); construct: GST-POSH lot NB81/p.118 3.6 mg/ml; fused on or other part: GST tag, used for detection with anti-GST XL665; assay: Selectivity (% A in 1 μM), ubiquitin ligase activity of POSH; type: biochemical; conditions: % activity at 1 μM compound; control is related to 100% activity; HTS protocol; read-out: Selectivity (% A* in 1 μM) POSH
Numbers only, in %.

- COc1cc(/C=C2\SC(=O)NC2=O)ccc1OCc1ccc(Cl)cc1Cl [Compound 34]: 23
- O=C1/C(=C\c2cccc([N+](=O)[O-])c2)Sc2ccccc21 [Compound 52]: 80
- O=C1NC(=S)N(c2ccccc2)C(=O)/C1=C\c1c(Cl)cccc1Cl [Compound 6]: 14
- COc1ccc(/C=C/C(=O)C2C(=O)CCC2=O)cc1OC [Compound 113]: 74

Turning to the following compound.
Exercise: Please give the measured remaining activity at 1 µM for this compound: CC(=O)Nc1ccc(-c2cc3ccccn3c2)cc1 [Compound 78]
Key: 22

###

biological target: c-cbl (Homo sapiens, UniProt P22681); assay: Selectivity (% A in 1 μM), ubiquitin ligase activity of c-cbl; type: biochemical; details: % activity at 1 μM compound; control is related to 100% activity; HTS protocol
readout: remaining activity at 1 µM (%)
Give bare numbers, in %.

• O=C1/C(=C\c2ccc(Cl)c([N+](=O)[O-])c2)Sc2ccccc21 = 155
• Oc1c(Br)cc(Cl)cc1/C=N/c1ccccn1 = 118

Exercise: Reported remaining activity at 1 µM for `Cc1ccc(C(=O)NN=C2CCC(=NNC(=O)c3ccc(C)cc3)CC2)cc1` : what is it?
Key: 84

###

target: POSH (Homo sapiens, UniProt Q7Z6J0); construct: GST-POSH lot NB81/p.118 3.6 mg/ml; fused on or other part: GST tag, used for detection with anti-GST XL665; assay: IC50 assay procedure: GST-POSH auto-ubiquitination, homogeneous time-resolved fluorescence (Ub-cryptate / anti-GST XL665); type: biochemical; conditions: ubiquitin ligase activity of POSH; GST-POSH 33 nM, 30 min preincubation
readout: pIC50
Numbers only, as −log10 of the molar value.

# annotated cases, reported pIC50 shown
• O=c1nc(C(F)(F)F)cc(/C=C/c2ccc(-c3ccc(Br)cc3)o2)[nH]1 = 6.00
• O=C(NCc1ccc(Cl)cc1)C(=O)Nc1ccccc1 = 6.00
• O=[N+]([O-])c1ccc(Cl)cc1CN1CCN(CCO)CC1 = 6.52
• COc1ccc(CNc2cccc(N(C)C)c2)cc1 = 6.05

Now turn to the next molecule.
Exercise: POSH (Homo sapiens, UniProt Q7Z6J0) / pIC50 / `N/N=C\c1ccc(-c2cccs2)s1` : value?
Key: 6.00

###

target: c-cbl (Homo sapiens, UniProt P22681); assay: Selectivity (% A in 1 μM), ubiquitin ligase activity of c-cbl; format: biochemical; settings: % activity at 1 μM compound; control is related to 100% activity; HTS protocol
For each entry below, report its remaining activity at 1 µM value.
Give bare numbers, in %.

The examples below pair each entry with its known result.
* COc1cc(/C=C2\SC(=O)NC2=O)ccc1OCc1ccc(Cl)cc1Cl | 135
* Oc1c(Cl)cc(Cl)cc1/C=N/c1ccc(-c2nc3ccccc3[nH]2)cc1 | 95
* O=C1N=C(c2ccccc2)S/C1=C/c1ccc2ccccc2c1 | 141
* O=C1\C(=C/C=C/C=C/Nc2ccccc2)SC(=S)N1c1ccccc1 | 90
* COc1ccc(/C=C/C(=O)C2C(=O)CCC2=O)cc1OC | 93

Quick batch: remaining activity at 1 µM for everything below.
1. Cc1cc(/N=C/c2c(O)ccc3ccccc23)no1
2. Oc1c(Br)cc(Cl)cc1/C=N/c1ccccc1Br
3. O=c1/c(=C/c2cccc([N+](=O)[O-])c2O)sc2nc3ccccc3n12
4. O=C1/C(=C\c2cccc([N+](=O)[O-])c2)Sc2ccccc21
5. Oc1ccc2ccccc2c1/C=N/c1ncc(Br)cc1Br

Key:
98
115
104
124
107

Fill in remaining activity at 1 µM for each of the 7 molecules listed.
1. COc1cc(C2Nc3ccccc3NC3=C2C(=O)CC(C)(C)C3)cc(Br)c1O (stereo not shown)
2. O=C1C=CC(=O)N1c1cc(Cl)cc(Cl)c1
3. Cc1ccc2nc(-c3ccc(/N=C/c4ccc([N+](=O)[O-])s4)cc3)sc2c1
4. O=c1nc(C(F)(F)F)cc(/C=C/c2ccc(-c3ccc(Br)cc3)o2)[nH]1
5. COc1ccccc1/C=C1\N=C(c2ccccc2Cl)OC1=O
6. COC(=O)c1ccc(N2C(=O)c3cccc(N)c3C2=O)cc1
7. CC(=O)Nc1ccc(-c2cc3ccccn3c2)cc1

Key:
1: 111; 2: 102; 3: 95; 4: 132; 5: 127; 6: 91; 7: 151

// each listed molecule needs a value for remaining activity at 1 µM
1. COc1ccc(CNc2cccc(N(C)C)c2)cc1
2. COC(=O)C1=C(C(=O)OC)SC(=C2C(=S)C(C)(C)N(C(C)=O)c3cc(C)ccc32)S1

Key:
1. 112
2. 88
